Data credit: the nanobody polyreactivity screen of Harvey et al. (2022)

- experiment_summary: yeast display, Sf9 membrane polyspecificity reagent, FACS + sequencing; frameworks hold sequencing errors
readout_kind: polyreactivity (PSR sort gate)

Below: 4 sequences and their reported polyreactivity (PSR sort gate).
- primary_sequence: "QVQLVESGGGLVQAGGSLRLSCAASGSIFTYNAMGWYRPAPGKERELVASITWSGGSTYYADSVKGRFTISRDNAKNTVSLQMNSLKPEDTAVYYCAAKRVHGATGYWGQGTQVTVSS"
  reported_value: "high polyreactivity"
- primary_sequence: "QVQLVESGGGLVQAVGSLRLSCAASGSIFQPYAMGWYRQAPGKERELVAAISIGDSTNYADSVKGRFTISRDNAKNTVYLQMNSLKPEDTAVYYCNTTGEYYDYWGQGTQVTVSS"
  reported_value: "low polyreactivity"
- primary_sequence: "QVQLQESGGGLVQVGGSLRLSCPSSGTIFIYGFLGWNRQAPGKERELVASINLGGITNYADSVKGRCTISRDNAKNTVNLQMISLKPEDTAVYYCATYVVTGQNYGYWGQGTQVTVSR"
  reported_value: "low polyreactivity"
- primary_sequence: "QVQLVESGGGLVQAGGSLRLSSAASGRTFYYYAFGWYRQAPGKERELVARITAICGRTYYADSVKGRFTISLDNAKNTVYLQMNCLKPEDTAVYYCAAASWPAYSYYPFYYWGQGSQVTVSS"
  reported_value: "high polyreactivity"

Exercise: Record request: polyreactivity (PSR sort gate) value, item QVQLVESGGGLVQAGGSLRLSCAASGSTFTSYAMGWYRQAPGKERELVAAIRYRGDGTYYADSVKGRFTISRDNAKNTVYLQMNSLKPEDTAVYYCAADSRVYRGGYIYRYGYWGQGTQVTVSS
Solution: low polyreactivity

----------
- experiment_summary: yeast display, Sf9 membrane polyspecificity reagent, FACS + sequencing; frameworks hold sequencing errors
readout_kind: polyreactivity (PSR sort gate)

Below: 4 sequences and their reported polyreactivity (PSR sort gate).
- primary_sequence: "QVQLVESRGGLVQAGGSLRLSCAASGFIFYWNAMGWYRQAPGKEREFVATITWSGGSTYYADSVKGRFTISRDNAKNTVYLQMNSLKPEDTAVYYCNADVTWEDDYCGQGTQVTVSS"
  polyreactivity (PSR sort gate): "low polyreactivity"
- primary_sequence: "QVQLVESGGGLVQAGGSLRLSCAASGFTFWQYAMGWYRQAPGKERELVAAITRDVGSTYYADSVKGRFTISRDNAKNTVYLQMNSLKPEDTAVYYCAKLFGGTYYEYDYWGQGTHVTVSS"
  polyreactivity (PSR sort gate): "low polyreactivity"
- primary_sequence: "LVQLVESGGGLVQAGGSLRLSCAASGSLFVVTAMGWYRQAPGKERELVAAFSSGGRTYYADSVKGRFTISRDNAKNTVYLQMNSVKPEDTAVYYCAAGGWRGHCYWGQGTQVTVSS"
  polyreactivity (PSR sort gate): "high polyreactivity"
- primary_sequence: "QVQLVESGGGLVQAGGSLRLSCAASGGNFRLYAMGWYSPAPGKERELVAAINGGGSTNYADSVKGRFTISRDNAKNTVYLQMNSLKPEDTAVYYCNAVQYYRFQVYEYDYWGQGTQVTVSS"
  polyreactivity (PSR sort gate): "high polyreactivity"

Would you kindly look at the next entry?
Exercise: Record request: polyreactivity (PSR sort gate) value, item QVRLVESGGGLVQAGGSLRLSCAASGSTFYPYDMGWYRQAPGKERELVATISSGVSTNYADSVKGRFTISRDNAKNTVYLQMNSLKPEDTAVYYCAVDYFIGDDDYWGQGTQVTVSS
Solution: low polyreactivity

----------
- experiment_summary: yeast display, Sf9 membrane polyspecificity reagent, FACS + sequencing; frameworks hold sequencing errors
readout_kind: polyreactivity (PSR sort gate)

Below: 8 sequences and their reported polyreactivity (PSR sort gate).
- primary_sequence: "QVQLVESGGVLVQAGGSLRLSCPASGRTFTYNAMGWYRQAPGKERELVAVITNSGGSTYYADSVKGRFTISRDNPKNTVYLQMNSLKPEDTAVYYCAADYFYRYWYRFYYWGQGTQVTVSS"
  polyreactivity (PSR sort gate): "high polyreactivity"
- primary_sequence: "QVQLVESGGGLVQAGGSLRLSCAASGLIFPYYAMGWYRPAPGKERELVAAISRSGDSTYYADSVKGRFTISRDNAKNTVYLQMYSLKPEDTAVYYCAAVLSYSYVRYNYWGQGTQVNVSS"
  polyreactivity (PSR sort gate): "high polyreactivity"
- primary_sequence: "QVQLVESGGGLVQAGGSLRLSCAASGSIFGYYAMGWYIQAPGKERELVAAISWSGGSTYYADSVKGRFTISRDNAKNTVYLQMNSLKPEDTAVYYCNAYTRRGGHDYWGQGTQVTVSS"
  polyreactivity (PSR sort gate): "high polyreactivity"
- primary_sequence: "QVQLVESGGGLVQAGGSLRLSCAASGRTFGSYVMGWYRQAPGKERELVAAISWSSGITYYADSVKGRFTISRDNAKNTVYLQMNSLKPEDTAVYYCAARIWDSRAYYYWGQGTQVTVSS"
  polyreactivity (PSR sort gate): "high polyreactivity"
- primary_sequence: "QVQLVESGGGLVQAGCSLLLSCAASGRLFSLNAMGWYRQAPGKERELVAAITRSAASTHYADSEKGRFTISRDNAKNTVYLQMNSLKPEDTAVYYCAARFWYDYRHYDYWGQGTEVTVSS"
  polyreactivity (PSR sort gate): "low polyreactivity"
- primary_sequence: "QVQLVESGGGLVQAGGSLRLSCAASGRIFKRNAMGWYRQAPGKERELVAAISSRVGRTYYADSVKGRFTISRDNAKNTVYLQMNSLKPEDTAVYYCAADTYTYYDYDYWGQGTQVTVSS"
  polyreactivity (PSR sort gate): "high polyreactivity"
- primary_sequence: "QVQLVESGGGLVQAAGSLRLSCAASGITFVTYDRGWYRQAPGKEWELVAAISRSGVRTYYADSVKWRFTISRDNAKNTVYLQMNSLKPEDTAVYYCAAERKNKYDYWGLGTQVTVSS"
  polyreactivity (PSR sort gate): "high polyreactivity"
- primary_sequence: "QVQLVESGGGLVQAGGSLRLSCAASGFIFALYAMGWYRQAPGKERELVASISKSGARTYYADSVKGRFTISRDNAKNTVDLQMNSLKPEDPAVYYCAALYRTGGIQYAGYGYWGQGTQVTVSS"
  polyreactivity (PSR sort gate): "high polyreactivity"

For every item below, please supply its polyreactivity (PSR sort gate).
1. QDQLVESVGGLVQAGGSLRLSCAPTGSTFYGYGLAWSRQSPGKARELVAAITGSGDTTYYADSVKGRFTISRDYANNTVYLQMNSLKPEDTAVYYCNARWHAEYDYWGQGTQVTVSS
2. QVTLVESGGGLVQAGGSLRLSCAASGSIRGYALGWSRQPPGKDRALVAAMSWRGGSTYYADSVKGRFTISRDNAKNTVYLQMNSLKPEETAVYYCAVEYVYWLSWYFQYDYWGQGTQVTVSS
3. QVQLVESGGGLVQAGGSLRLSCAASGSTFGANAMGWYRQAPGKEREFVAAISRSGVRTYYADSVKGRFTISRDNAKNTVYLKLNSLKPEDTAVYYCAADGYWWTYTRYDYWGQGTQVTVSS
4. QVQLVESGGGLVQAGCSLRLSCAASGLIFSKNVMGWYRQAPGKERELVAAISQRGGSTYYADSVKGRFTISRDNAKNTVYLQMNSLKPEDTAVYYCAADNSVSHEDYWGQGTQVTVSS
5. QVQLVESGGGLVQAGGSLRLSCAASGSTFAEYAMGWYRQAPGKERELVAAIRWSGGSTSYADSVKGRFTISRDNAKNTVYLQMNSLKPEDTAVYYCAAERFWYDGEVKLYVLSYYWGQGTQVTVSS
6. QVQLVESGGGLVQAGGSLRLSCASSVYIFVSNTKGWYRPAPGKERELVAAISWSGGSTNYADSVKGRFTISRDKAKNTVYLLMNSLKPEDTAVYYCNADDASHYYFRDDYWGQGTQVTVSS
7. QVQLQESGGGLVQADGSLRLSCAASGSIFGYYNMGWYRQAPGKHRELVATINLCRITNYADSVKGRFTISRDNATNTVYVEMHSLNPDDTAVFYCAADEYAQRDLGYWGQGTQVTVSS

Solution:
low polyreactivity
low polyreactivity
low polyreactivity
high polyreactivity
low polyreactivity
low polyreactivity
low polyreactivity

For every item below, please supply its polyreactivity (PSR sort gate).
1. QVQLVESGGGLFKAGGSLRLRCAPSGSIFDYNTMAWYRQAPGKERQFVAAISSARGGTSYADSVKGRFTISRDNAKNTVYLQMNSLKPEDTAVYYCAALIILTPYQRQYWKYGAYFYWGQGTQVTVSS
2. QVQLVESGGGLVQAGGSLRLSCAASGRTYKINAMGCYRQAPGKERELVASISRTGGTTYYADSVKGRFTNSRDNAKNTVYLQMNSLNPEDTAVYYCAVSDFGLLDCLTIYDEYDYWGQGTQVTVSS
3. QVQLVESGGGLVQAGGSLRLTCAASGSTFYSNAMGWYRQAPGKERYLVAAITSRGDRTYYADSVKGRFTISRDNAKNTVYFQLNSLNPEDTAVYSCAAEQSWQGYAYYYWGQGTQVTVSS
4. QVQLVESGGGLVQAGGSLRLSCAASGFTFKGYAMGWYRQAPGKERELVAGITSGGRTYYADSVKGRFTISRDNAKNTVYLQMNSLKPEDTAVYYCAAVHYVAYYGYDYWGQGSQVTVSS
5. QVQLVESGGGLVQAGGSLRLSCAASGSTFYTYAMGWYRQAPGKERELVAAITYSGGTTYYADSVKGRFTISRDNAKNTVYLQMNSLKPEDTAVYYCNTRSYYYSDDYWGQGTQVTVSS
6. QVQLVESGGGLVQAGGSLRVSCAASGFTFYGYAMGWSRQAPGKEREVVAAISWSGGSTYYADSVKGRFTISRDNAKNTVYLLMNRLKAEDTAVYYCAKKWTAPGKGYPRSPGGYGYWGQGTQVTVSS

Solution:
1. high polyreactivity
2. high polyreactivity
3. high polyreactivity
4. high polyreactivity
5. low polyreactivity
6. high polyreactivity
